Data origin, for the record: patent US20240360228A1

molecular target: T1, human chemokine (C-C motif) receptor 8 (CCR8) (human, UniProt P51685 1-355); test: flow cytometry blocking, human PBMC, CD3+ gate; % cells stained by competitor PE-AB11 after block
T1 construct: also called hCCR8
T1 sequence (P51685 whole entry): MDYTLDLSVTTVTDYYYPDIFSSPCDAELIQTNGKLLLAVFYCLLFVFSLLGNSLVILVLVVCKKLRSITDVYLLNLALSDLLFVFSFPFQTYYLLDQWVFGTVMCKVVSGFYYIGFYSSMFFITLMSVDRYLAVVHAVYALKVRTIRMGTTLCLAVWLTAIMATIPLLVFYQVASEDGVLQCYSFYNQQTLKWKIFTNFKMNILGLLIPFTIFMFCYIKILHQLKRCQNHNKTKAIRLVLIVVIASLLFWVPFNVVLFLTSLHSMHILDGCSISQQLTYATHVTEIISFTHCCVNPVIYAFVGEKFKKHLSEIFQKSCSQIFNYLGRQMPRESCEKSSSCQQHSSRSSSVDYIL
parameter: % Positive cells (%)
The response must be a number in % with no trailing unit.

Request: Can you look up the measured % Positive cells of anti-CCR8 monoclonal antibody AB11 (antibody, V domains shown, Hybridoma monoclonal; also called antibody 11; clone 11) VH: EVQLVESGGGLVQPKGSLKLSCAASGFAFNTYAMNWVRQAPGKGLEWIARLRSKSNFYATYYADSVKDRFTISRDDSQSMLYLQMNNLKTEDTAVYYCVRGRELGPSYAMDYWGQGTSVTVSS VL: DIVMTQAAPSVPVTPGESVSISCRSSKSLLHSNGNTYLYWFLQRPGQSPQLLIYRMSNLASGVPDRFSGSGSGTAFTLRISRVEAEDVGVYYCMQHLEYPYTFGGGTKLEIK for me?
Result: 0.09
